Experiment: Inhibition of rat liver glucosidase 2 assessed as inhibition of conversion of G1M9 to M9
propertyName: IC50 (µM)
Give bare numbers, in µM.

{"molecule": "O[C@H]1[C@H](O)C=CC(Br)[C@@H]1O (stereo partly drawn) [BROMOCONDURITOL]", "readoutNumber": 41}

# batch: return IC50 for each of the 2 molecules below
1. OC[C@H]1NC[C@H](O)[C@@H](O)[C@@H]1O [DUVOGLUSTAT]
2. O[C@H]1[C@H](O)[C@@H](O)CN2CC[C@H](O)[C@H]12 [CASTANOSPERMINE]

1: 11.2; 2: 1.1

---

Experiment: Inhibition of rat liver glucosidase 2 assessed as inhibition of conversion of G2M9 to G1M9
Provide the recorded pIC50 for the entries that follow.
Answers are plain numbers, as −log10 of the molar value.

{"compound": "O[C@H]1[C@H](O)[C@@H](O)CN2CC[C@H](O)[C@H]12", "pIC50": 5.89}
{"compound": "O[C@H]1[C@H](O)C=CC(Br)[C@@H]1O (stereo partly drawn)", "pIC50": 3.58}

// query pIC50 value for entry "OC[C@H]1NC[C@H](O)[C@@H](O)[C@@H]1O"
5.09
